Field: melting temperature (Tm). Provide a value for each of the molecules that follow.
experiment: Thermostability measurements of Spinach RNAs with DFHBI; assay type: physicochemical; conditions: fluorescence of RNA-DFHBI complex in vitro, 20-60 °C; ±s.e.m.
Report only the number, with the unit °C understood.

Fill in melting temperature (Tm) for record Spinach2: RNA aptamer SEQ ID NO: 2; Spinach1.2 variant containing all six mutations (nucleic acid, listed as RNA, chemistry not given here, Spinach1.2 variant containing all six mutations) GAUGUAACUGAAUGAAAUGGUGAAGGACGGGUCCAGUAGGCUGCUUCGGCAGCCUACUUGUUGAGUAGAGUGUGAGCUCCGUAACUAGUUACAUC
38

Give recorded melting temperature (Tm). Spinach1.1: Spinach mutant with perfect complementarity in stem 1, SEQ ID NO: 30 (nucleic acid, listed as DNA, chemistry not given here) GACGCGACCGAATGAAATGGTGAAGGACGGGTCCAGGTGTGGCTGCTTCGGCAGTGCAGCTTGTTGAGTAGAGTGTGAGCTCCGTAACTGGTCGCGTC
35

Tell me melting temperature (Tm) reported for Spinach1.2: Spinach mutant with perfect complementarity in stem 1 and stem loop 3, SEQ ID NO: 31 (nucleic acid, listed as DNA, chemistry not given here) GACGCGACCGAATGAAATGGTGAAGGACGGGTCCAGCCGGCTGCTTCGGCAGCCGGCTTGTTGAGTAGAGTGTGAGCTCCGTAACTGGTCGCGTC
38

Read off the recorded melting temperature (Tm) for Spinach: RNA aptamer binding DFHBI, SEQ ID NO: 1 (nucleic acid, listed as RNA, chemistry not given here) GACGCAACUGAAUGAAAUGGUGAAGGACGGGUCCAGGUGUGGCUGCUUCGGCAGUGCAGCUUGUUGAGUAGAGUGUGAGCUCCGUAACUAGUCGCGUC
34
